tested-target: ATP-dependent translocase ABCB1 (Homo sapiens, UniProt P08183)
Sequence (P08183 whole entry): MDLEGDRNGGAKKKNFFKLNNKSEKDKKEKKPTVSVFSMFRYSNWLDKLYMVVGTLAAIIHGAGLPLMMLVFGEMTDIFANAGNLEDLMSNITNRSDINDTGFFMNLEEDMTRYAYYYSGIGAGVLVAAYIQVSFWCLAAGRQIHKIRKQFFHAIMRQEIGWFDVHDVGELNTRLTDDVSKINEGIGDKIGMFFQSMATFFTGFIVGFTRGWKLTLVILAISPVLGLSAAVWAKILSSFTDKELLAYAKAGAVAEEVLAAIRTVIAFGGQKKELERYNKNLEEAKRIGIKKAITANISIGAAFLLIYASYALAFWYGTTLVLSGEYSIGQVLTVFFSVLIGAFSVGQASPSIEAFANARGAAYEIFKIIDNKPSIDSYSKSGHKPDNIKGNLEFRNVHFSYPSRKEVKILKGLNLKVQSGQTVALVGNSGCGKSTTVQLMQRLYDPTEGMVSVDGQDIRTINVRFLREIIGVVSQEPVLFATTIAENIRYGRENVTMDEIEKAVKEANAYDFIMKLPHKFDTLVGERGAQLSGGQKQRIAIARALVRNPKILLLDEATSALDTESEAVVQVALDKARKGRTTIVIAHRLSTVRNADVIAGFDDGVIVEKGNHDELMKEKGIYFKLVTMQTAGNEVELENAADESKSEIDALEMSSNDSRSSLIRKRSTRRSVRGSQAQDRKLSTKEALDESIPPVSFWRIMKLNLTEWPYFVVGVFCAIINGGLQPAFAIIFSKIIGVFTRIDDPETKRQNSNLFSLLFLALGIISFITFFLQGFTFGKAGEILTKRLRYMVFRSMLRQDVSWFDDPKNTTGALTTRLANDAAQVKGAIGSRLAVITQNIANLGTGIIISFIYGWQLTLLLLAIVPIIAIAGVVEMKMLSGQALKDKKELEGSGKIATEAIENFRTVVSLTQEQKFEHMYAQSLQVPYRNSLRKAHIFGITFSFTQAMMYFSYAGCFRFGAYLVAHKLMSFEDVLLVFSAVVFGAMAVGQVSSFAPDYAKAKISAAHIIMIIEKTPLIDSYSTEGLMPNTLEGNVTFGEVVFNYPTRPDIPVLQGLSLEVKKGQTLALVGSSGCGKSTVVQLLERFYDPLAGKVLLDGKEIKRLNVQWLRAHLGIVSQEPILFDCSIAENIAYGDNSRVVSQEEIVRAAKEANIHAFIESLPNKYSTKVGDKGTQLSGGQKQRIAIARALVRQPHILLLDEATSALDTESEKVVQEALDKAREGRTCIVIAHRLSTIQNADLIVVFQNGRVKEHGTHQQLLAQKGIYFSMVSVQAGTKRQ
experiment-notes: Inhibition of MDR1-mediated efflux-pump activity in mouse L5178Y cells expressing human MDR1 assessed as forward scattered light at 2 uM preincubated for 10 mins followed by rhodamine-123 addition measured after 20 mins by flow cytometry (reference value: 455.7 to 509.9)
Format: cell-based
readout-label: Activity

Answered examples (8):
INSERT INTO results (molecule, readout_label, reported) VALUES
  ('CO[C@H]1C=C2[C@@H](CC[C@H](O)C2(C)C)[C@]2(C)CC[C@]3(C)[C@@H]([C@H](C)C[C@H](C=C(C)C)OC(=O)c4ccc(Cl)cc4)CC[C@@]3(C)[C@H]12 [KARAVOATE K]', 'Activity', 517.9),
  ('CO[C@H]1C=C2[C@@H](CC[C@H](O)C2(C)C)[C@]2(C)CC[C@]3(C)[C@@H]([C@H](C)C[C@H](C=C(C)C)OC(=O)c4ccc([N+](=O)[O-])cc4)CC[C@@]3(C)[C@H]12 [KARAVOATE I]', 'Activity', 537.3),
  ('C=C(C)[C@@H](O)[C@H](O)C[C@@H](C)[C@H]1CC[C@@]2(C)[C@@H]3[C@@H](O)C=C4[C@@H](CC[C@H](O)[C@]4(C)CO)[C@]3(C)CC[C@]12C [BALSAMINAPENTAOL A]', 'Activity', 427.2),
  ('COc1ccc(C(=O)O[C@@H](C=C(C)C)C[C@@H](C)[C@H]2CC[C@@]3(C)[C@@H]4[C@@H](OC)C=C5[C@@H](CC[C@H](O)C5(C)C)[C@]4(C)CC[C@]23C)cc1 [KARAVOATE M]', 'Activity', 526),
  ('CC(C)=C[C@H](O)C[C@@H](C)[C@H]1CC[C@@]2(C)[C@@H]3[C@@H](O[C@H]4O[C@@H](CO)[C@H](O)[C@H](O)[C@@H]4O)C=C4[C@@H](CC[C@H](O)C4(C)C)[C@]3(C)CC[C@]12C', 'Activity', 443.8),
  ('CC(C)=C[C@@H](C[C@@H](C)[C@H]1CC[C@@]2(C)[C@@H]3[C@@H](OC(=O)c4ccccc4)C=C4[C@@H](CC[C@H](OC(=O)c5ccccc5)C4(C)C)[C@]3(C)CC[C@]12C)OC(=O)c1ccccc1 [TRIBENZOYLBALSAMINOL F]', 'Activity', 524.2),
  ('CC(C)=C[C@H](O)C[C@@H](C)[C@H]1CC[C@@]2(C)[C@@H]3[C@@H](O)C=C4[C@@H](CC[C@H](O)C4(C)C)[C@]3(C)CC[C@]12C [BALSAMINOL F]', 'Activity', 490.7),
  ('CO[C@H]1C=C2[C@@H](CC[C@H](O)C2(C)C)[C@]2(C)C[C@@H](O)[C@]3(C)[C@@H]([C@H](C)C/C=C/C(C)(C)O)CC[C@@]3(C)[C@H]12', 'Activity', 568.6);

Sure, the documented Activity for CO[C@H]1C=C2[C@@H](CC[C@H](OC(=O)CCC(=O)O)C2(C)C)[C@]2(C)CC[C@]3(C)[C@@H]([C@H](C)C[C@H](C=C(C)C)OC(=O)CCC(=O)O)CC[C@@]3(C)[C@H]12 is 545.8
